# Tested on: HSSY-II complex spheroid growth, percent test/control
# EXPERIMENT: Anticancer human tumor HSSY-II cell line growth inhibition [Asc];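 further: spheroids exposed to drug for 7 days before reading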
# MEASUREMENT CONDITIONS: second compound 3.16 µM; first compound 0.01 µM; active compounds read low
Answer each item with its documented viability, T/C.
Answers are plain numbers, in %.

compound="Cn1ncnc1[C@H]1c2n[nH]c(=O)c3cc(F)cc(c23)N[C@@H]1c1ccc(F)cc1 + Cc1c(S(C)(=O)=O)c(-c2cc(F)cc(N3CCN(c4ccc(NS(=O)(=O)c5ccc(NC(CCN6CCC(C(=O)OCCCP(=O)(O)O)CC6)CSc6ccccc6)c(S(=O)(=O)C(F)(F)F)c5)cc4)CC3)c2)c(-c2ccc(Cl)cc2)n1C(C)C" system_under_test="HSSY-II complex spheroid growth, percent test/control" assay_value=47.5
compound="COc1c(OCCCN2CCOCC2)ccc2c3n(c(=NC(=O)c4cnc(N)nc4)nc12)CCN3 + Cc1c(S(C)(=O)=O)c(-c2cc(F)cc(N3CCN(c4ccc(NS(=O)(=O)c5ccc(NC(CCN6CCC(C(=O)OCCCP(=O)(O)O)CC6)CSc6ccccc6)c(S(=O)(=O)C(F)(F)F)c5)cc4)CC3)c2)c(-c2ccc(Cl)cc2)n1C(C)C" system_under_test="HSSY-II complex spheroid growth, percent test/control" assay_value=67.9

Read the next record carefully.
Query: Kindly state the measured viability, T/C obtained for NC1CCC(NC2CC2c2ccccc2)CC1 (stereo not drawn) + Cc1c(S(C)(=O)=O)c(-c2cc(F)cc(N3CCN(c4ccc(NS(=O)(=O)c5ccc(NC(CCN6CCC(C(=O)OCCCP(=O)(O)O)CC6)CSc6ccccc6)c(S(=O)(=O)C(F)(F)F)c5)cc4)CC3)c2)c(-c2ccc(Cl)cc2)n1C(C)C with HSSY-II complex spheroid growth, percent test/control.
Reply: 61.1

----------
# Test system: HSSY-II complex spheroid growth, percent test/control
# EXPERIMENT: Anticancer human tumor HSSY-II cell line growth inhibition [Asc];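 further: spheroids exposed to drug for 7 days before reading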
# MEASUREMENT CONDITIONS: second compound 0.03 µM; first compound 0.00316 µM; active compounds read low
QUANTITY: viability, T/C

molecule="COc1c(OCCCN2CCOCC2)ccc2c3n(c(=NC(=O)c4cnc(N)nc4)nc12)CCN3 + CCN1C(C(=O)NC23CCC(C(=O)O)(CC2)CC3)C(c2cccc(Cl)c2F)C2(C(=O)Nc3cc(Cl)ccc32)C12CCCCC2" quantity="viability, T/C" assay_value=83.3%
molecule="NC1CCC(NC2CC2c2ccccc2)CC1 (stereo not drawn) + CCN1C(C(=O)NC23CCC(C(=O)O)(CC2)CC3)C(c2cccc(Cl)c2F)C2(C(=O)Nc3cc(Cl)ccc32)C12CCCCC2" quantity="viability, T/C" assay_value=58.6%

Read the next record carefully.
Query: Need viability, T/C of Cn1ncnc1[C@H]1c2n[nH]c(=O)c3cc(F)cc(c23)N[C@@H]1c1ccc(F)cc1 + CCN1C(C(=O)NC23CCC(C(=O)O)(CC2)CC3)C(c2cccc(Cl)c2F)C2(C(=O)Nc3cc(Cl)ccc32)C12CCCCC2 , thanks.
Reply: 68.1%

----------
Answer each item with its documented viability, T/C.
# Test system: HSSY-II complex spheroid growth, percent test/control
# EXPERIMENT: Anticancer human tumor HSSY-II cell line growth inhibition [Asc];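 further: spheroids exposed to drug for 7 days before reading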
# MEASUREMENT CONDITIONS: second compound 0.01 µM; first compound 0.01 µM; active compounds read low
Numbers only, in %.

compound="Cn1ncnc1[C@H]1c2n[nH]c(=O)c3cc(F)cc(c23)N[C@@H]1c1ccc(F)cc1 + CNC(C)C(=O)NC1CN(S(=O)(=O)c2cccc(S(=O)(=O)N3CCC4CCC(C(=O)NC(c5ccccc5)c5ccccc5)N4C(=O)C(NC(=O)C(C)NC)C3)c2)CCC2CCC(C(=O)NC(c3ccccc3)c3ccccc3)N2C1=O" units_of_measure=% assay_value=59.3

Query: Need viability, T/C of CCN1CCN(Cc2ccc(Nc3ncc(F)c(-c4cc(F)c5nc(C)n(C(C)C)c5c4)n3)nc2)CC1 + CNC(C)C(=O)NC1CN(S(=O)(=O)c2cccc(S(=O)(=O)N3CCC4CCC(C(=O)NC(c5ccccc5)c5ccccc5)N4C(=O)C(NC(=O)C(C)NC)C3)c2)CCC2CCC(C(=O)NC(c3ccccc3)c3ccccc3)N2C1=O , thanks.
Reply: 92.5

----------
# Test system: HSSY-II complex spheroid growth, percent test/control
# EXPERIMENT: Anticancer human tumor HSSY-II cell line growth inhibition [Asc];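 further: spheroids exposed to drug for 7 days before reading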
# MEASUREMENT CONDITIONS: second compound 1 µM; first compound 1 µM; active compounds read low
Answer each item with its documented viability, T/C.

molecule="C=C(F)C(=O)N1CCN(c2nc(OCC3CCCN3C)nc3c2CCN(c2cccc4cccc(Cl)c24)C3)CC1CC#N (stereo not drawn) + Cc1c(S(C)(=O)=O)c(-c2cc(F)cc(N3CCN(c4ccc(NS(=O)(=O)c5ccc(NC(CCN6CCC(C(=O)OCCCP(=O)(O)O)CC6)CSc6ccccc6)c(S(=O)(=O)C(F)(F)F)c5)cc4)CC3)c2)c(-c2ccc(Cl)cc2)n1C(C)C" quantity="viability, T/C" assay_value=57%
molecule="C=C(F)C(=O)N1CCN(c2nc(OCC3CCCN3C)nc3c2CCN(c2cccc4cccc(Cl)c24)C3)CC1CC#N (stereo not drawn) + CNC(C)C(=O)NC1CN(S(=O)(=O)c2cccc(S(=O)(=O)N3CCC4CCC(C(=O)NC(c5ccccc5)c5ccccc5)N4C(=O)C(NC(=O)C(C)NC)C3)c2)CCC2CCC(C(=O)NC(c3ccccc3)c3ccccc3)N2C1=O" quantity="viability, T/C" assay_value=41.6%

Read the next record carefully.
Query: Need viability, T/C of CCN1CCN(Cc2ccc(Nc3ncc(F)c(-c4cc(F)c5nc(C)n(C(C)C)c5c4)n3)nc2)CC1 + CNC(C)C(=O)NC1CN(S(=O)(=O)c2cccc(S(=O)(=O)N3CCC4CCC(C(=O)NC(c5ccccc5)c5ccccc5)N4C(=O)C(NC(=O)C(C)NC)C3)c2)CCC2CCC(C(=O)NC(c3ccccc3)c3ccccc3)N2C1=O , thanks.
Reply: 18.8%

----------
# Test system: HSSY-II complex spheroid growth, percent test/control
# EXPERIMENT: Anticancer human tumor HSSY-II cell line growth inhibition [Asc];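 further: spheroids exposed to drug for 7 days before reading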
# MEASUREMENT CONDITIONS: second compound 1 µM; first compound 0.1 µM; active compounds read low
Answer each item with its documented viability, T/C.
One number for each entry, in %.

In the examples that follow, each entry is paired with its recorded viability, T/C.
molecule="O=C(c1ccc(F)c(F)c1Nc1ccc(I)cc1F)N1CC(O)([C@@H]2CCCCN2)C1 + CNC(C)C(=O)NC1CN(S(=O)(=O)c2cccc(S(=O)(=O)N3CCC4CCC(C(=O)NC(c5ccccc5)c5ccccc5)N4C(=O)C(NC(=O)C(C)NC)C3)c2)CCC2CCC(C(=O)NC(c3ccccc3)c3ccccc3)N2C1=O" system_under_test="HSSY-II complex spheroid growth, percent test/control" assay_value=95.1
molecule="NC1CCC(NC2CC2c2ccccc2)CC1 (stereo not drawn) + CNC(C)C(=O)NC1CN(S(=O)(=O)c2cccc(S(=O)(=O)N3CCC4CCC(C(=O)NC(c5ccccc5)c5ccccc5)N4C(=O)C(NC(=O)C(C)NC)C3)c2)CCC2CCC(C(=O)NC(c3ccccc3)c3ccccc3)N2C1=O" system_under_test="HSSY-II complex spheroid growth, percent test/control" assay_value=52.7

Read the next record carefully.
Query: Kindly state the measured viability, T/C obtained for C=C(F)C(=O)N1CCN(c2nc(OCC3CCCN3C)nc3c2CCN(c2cccc4cccc(Cl)c24)C3)CC1CC#N (stereo not drawn) + Cc1c(S(C)(=O)=O)c(-c2cc(F)cc(N3CCN(c4ccc(NS(=O)(=O)c5ccc(NC(CCN6CCC(C(=O)OCCCP(=O)(O)O)CC6)CSc6ccccc6)c(S(=O)(=O)C(F)(F)F)c5)cc4)CC3)c2)c(-c2ccc(Cl)cc2)n1C(C)C with HSSY-II complex spheroid growth, percent test/control.
Reply: 97.3

----------
# Tested on: HSSY-II complex spheroid growth, percent test/control
# EXPERIMENT: Anticancer human tumor HSSY-II cell line growth inhibition [Asc];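 further: spheroids exposed to drug for 7 days before reading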
# MEASUREMENT CONDITIONS: second compound 10 µM; first compound 0.316 µM; active compounds read low
Answer each item with its documented viability, T/C.

In the examples that follow, each entry is paired with its recorded viability, T/C.
compound="C=CC(=O)N1CCN(c2nc(=O)n(-c3c(C)ccnc3C(C)C)c3nc(-c4c(O)cccc4F)c(F)cc23)C(C)C1 (stereo not drawn) + Cc1c(S(C)(=O)=O)c(-c2cc(F)cc(N3CCN(c4ccc(NS(=O)(=O)c5ccc(NC(CCN6CCC(C(=O)OCCCP(=O)(O)O)CC6)CSc6ccccc6)c(S(=O)(=O)C(F)(F)F)c5)cc4)CC3)c2)c(-c2ccc(Cl)cc2)n1C(C)C" system_under_test="HSSY-II complex spheroid growth, percent test/control" quantity="viability, T/C" assay_value=93.1%
compound="O=C(c1ccc(F)c(F)c1Nc1ccc(I)cc1F)N1CC(O)([C@@H]2CCCCN2)C1 + Cc1c(S(C)(=O)=O)c(-c2cc(F)cc(N3CCN(c4ccc(NS(=O)(=O)c5ccc(NC(CCN6CCC(C(=O)OCCCP(=O)(O)O)CC6)CSc6ccccc6)c(S(=O)(=O)C(F)(F)F)c5)cc4)CC3)c2)c(-c2ccc(Cl)cc2)n1C(C)C" system_under_test="HSSY-II complex spheroid growth, percent test/control" quantity="viability, T/C" assay_value=81.7%
compound="CCN1CCN(Cc2ccc(Nc3ncc(F)c(-c4cc(F)c5nc(C)n(C(C)C)c5c4)n3)nc2)CC1 + Cc1c(S(C)(=O)=O)c(-c2cc(F)cc(N3CCN(c4ccc(NS(=O)(=O)c5ccc(NC(CCN6CCC(C(=O)OCCCP(=O)(O)O)CC6)CSc6ccccc6)c(S(=O)(=O)C(F)(F)F)c5)cc4)CC3)c2)c(-c2ccc(Cl)cc2)n1C(C)C" system_under_test="HSSY-II complex spheroid growth, percent test/control" quantity="viability, T/C" assay_value=40.3%
compound="CNC(C)C(=O)NC1CN(S(=O)(=O)c2cccc(S(=O)(=O)N3CCC4CCC(C(=O)NC(c5ccccc5)c5ccccc5)N4C(=O)C(NC(=O)C(C)NC)C3)c2)CCC2CCC(C(=O)NC(c3ccccc3)c3ccccc3)N2C1=O (stereo not drawn) + Cc1c(S(C)(=O)=O)c(-c2cc(F)cc(N3CCN(c4ccc(NS(=O)(=O)c5ccc(NC(CCN6CCC(C(=O)OCCCP(=O)(O)O)CC6)CSc6ccccc6)c(S(=O)(=O)C(F)(F)F)c5)cc4)CC3)c2)c(-c2ccc(Cl)cc2)n1C(C)C" system_under_test="HSSY-II complex spheroid growth, percent test/control" quantity="viability, T/C" assay_value=77.4%
compound="C#Cc1c(F)ccc2cc(O)cc(-c3ncc4c(N5CC6CCC(C5)N6)nc(OCC56CCCN5CC(F)C6)nc4c3F)c12 (stereo not drawn) + Cc1c(S(C)(=O)=O)c(-c2cc(F)cc(N3CCN(c4ccc(NS(=O)(=O)c5ccc(NC(CCN6CCC(C(=O)OCCCP(=O)(O)O)CC6)CSc6ccccc6)c(S(=O)(=O)C(F)(F)F)c5)cc4)CC3)c2)c(-c2ccc(Cl)cc2)n1C(C)C" system_under_test="HSSY-II complex spheroid growth, percent test/control" quantity="viability, T/C" assay_value=92.6%
compound="O=C(c1cc(Cc2n[nH]c(=O)c3ccccc23)ccc1F)N1CCN(C(=O)C2CC2)CC1 + Cc1c(S(C)(=O)=O)c(-c2cc(F)cc(N3CCN(c4ccc(NS(=O)(=O)c5ccc(NC(CCN6CCC(C(=O)OCCCP(=O)(O)O)CC6)CSc6ccccc6)c(S(=O)(=O)C(F)(F)F)c5)cc4)CC3)c2)c(-c2ccc(Cl)cc2)n1C(C)C" system_under_test="HSSY-II complex spheroid growth, percent test/control" quantity="viability, T/C" assay_value=78.8%
compound="C=C(F)C(=O)N1CCN(c2nc(OCC3CCCN3C)nc3c2CCN(c2cccc4cccc(Cl)c24)C3)CC1CC#N (stereo not drawn) + Cc1c(S(C)(=O)=O)c(-c2cc(F)cc(N3CCN(c4ccc(NS(=O)(=O)c5ccc(NC(CCN6CCC(C(=O)OCCCP(=O)(O)O)CC6)CSc6ccccc6)c(S(=O)(=O)C(F)(F)F)c5)cc4)CC3)c2)c(-c2ccc(Cl)cc2)n1C(C)C" system_under_test="HSSY-II complex spheroid growth, percent test/control" quantity="viability, T/C" assay_value=85.3%

Read the next record carefully.
Query: Need viability, T/C of COc1c(OCCCN2CCOCC2)ccc2c3n(c(=NC(=O)c4cnc(N)nc4)nc12)CCN3 + Cc1c(S(C)(=O)=O)c(-c2cc(F)cc(N3CCN(c4ccc(NS(=O)(=O)c5ccc(NC(CCN6CCC(C(=O)OCCCP(=O)(O)O)CC6)CSc6ccccc6)c(S(=O)(=O)C(F)(F)F)c5)cc4)CC3)c2)c(-c2ccc(Cl)cc2)n1C(C)C , thanks.
Reply: 16.4%
